Test system: SNB-75
TEST DETAILS: NCI tumour cell line growth inhibition, 48 h
The source made the active and inactive calls. Rule as the data show it: active = GI50 up to about 1.1 µM and inactive = higher.
# output must be one of y for active, n for inactive

Solved cases (3 shown):
>>> label("COC(=O)c1ccc(Nc2nc3[nH]cnc3c(=O)[nH]2)cc1")
"n"
>>> label("c1cc(-c2ccc(-c3nc4ccc(C5=NCCN5)cc4s3)s2)ccc1C1=NCCN1")
"y"
>>> label("O=c1c(-c2ccc(Cl)cc2)nnc2n(Cc3ccccc3)c3ccccc3n12")
"n"

With those in mind, consider the next compound.
Query string: Assay outcome for C=C1C(C)C2C(Cc3ccccc3)NC(=O)C23C(OC(C)=O)/C=C/C(C)(O)CC(C)C/C=C/C3C1O (centres undefined) : what was it?
Result string: y
